Recorded pIC50 values for a group of molecules are listed next.
- system.under.test: Vascular endothelial growth factor receptor 2 (Homo sapiens)
- Sequence (P35968 whole entry): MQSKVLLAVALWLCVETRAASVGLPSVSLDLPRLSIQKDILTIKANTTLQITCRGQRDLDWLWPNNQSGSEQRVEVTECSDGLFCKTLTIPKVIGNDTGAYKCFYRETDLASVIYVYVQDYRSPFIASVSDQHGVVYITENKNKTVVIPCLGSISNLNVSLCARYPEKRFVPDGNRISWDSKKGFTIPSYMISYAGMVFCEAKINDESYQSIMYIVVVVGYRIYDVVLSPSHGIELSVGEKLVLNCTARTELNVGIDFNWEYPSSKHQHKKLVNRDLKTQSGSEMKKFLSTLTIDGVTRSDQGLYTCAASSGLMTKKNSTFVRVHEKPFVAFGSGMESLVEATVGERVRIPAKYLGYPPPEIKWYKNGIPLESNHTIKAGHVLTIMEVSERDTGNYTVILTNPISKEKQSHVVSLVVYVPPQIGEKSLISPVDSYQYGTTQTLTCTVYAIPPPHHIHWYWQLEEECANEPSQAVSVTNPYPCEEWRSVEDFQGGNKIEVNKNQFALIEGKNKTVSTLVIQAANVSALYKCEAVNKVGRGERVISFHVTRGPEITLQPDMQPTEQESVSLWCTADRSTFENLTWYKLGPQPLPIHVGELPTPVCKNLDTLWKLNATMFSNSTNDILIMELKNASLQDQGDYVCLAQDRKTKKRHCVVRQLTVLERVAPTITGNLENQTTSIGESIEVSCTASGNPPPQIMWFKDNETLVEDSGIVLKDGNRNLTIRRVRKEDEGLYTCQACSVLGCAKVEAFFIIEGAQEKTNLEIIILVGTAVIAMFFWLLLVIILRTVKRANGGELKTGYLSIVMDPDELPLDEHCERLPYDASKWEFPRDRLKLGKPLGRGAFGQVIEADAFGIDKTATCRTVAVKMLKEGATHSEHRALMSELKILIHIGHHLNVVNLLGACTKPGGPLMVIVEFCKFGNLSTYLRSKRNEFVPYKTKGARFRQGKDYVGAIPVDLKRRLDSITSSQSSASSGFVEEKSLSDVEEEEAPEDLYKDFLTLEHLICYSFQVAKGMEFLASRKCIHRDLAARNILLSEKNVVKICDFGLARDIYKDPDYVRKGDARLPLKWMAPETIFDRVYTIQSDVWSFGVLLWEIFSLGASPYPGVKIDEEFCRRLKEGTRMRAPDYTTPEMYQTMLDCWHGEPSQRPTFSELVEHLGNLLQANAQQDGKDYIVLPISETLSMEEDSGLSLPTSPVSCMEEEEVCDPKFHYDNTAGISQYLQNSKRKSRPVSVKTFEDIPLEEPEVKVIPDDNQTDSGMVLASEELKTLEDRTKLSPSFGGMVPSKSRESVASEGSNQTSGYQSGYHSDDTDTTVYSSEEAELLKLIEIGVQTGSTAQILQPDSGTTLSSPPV
- assay.info: Inhibition of human KDR autophosphorylation expressed in mouse NIH/3T3 cells
- Format: cell-based, NIH3T3
pIC50: −log10 of the molar value.
observed.property: pIC50

In [3]: df
Out[3]:
                  compound_structure_string  observed_property  value_modifier  readout_value
0  NC(=O)[C@@H]1[C@H](Nc2nc(Nc3cnn([C@@H]4CCCNC4)c3)ncc2Cl)[C@H]2C=C[C@@H]1C2              pIC50               =           7.36
1  Cn1cc(Nc2ncc(C(F)(F)F)c(N[C@@H]3[C@H]4CC[C@H](C4)[C@@H]3C(N)=O)n2)cn1              pIC50               =           7.21
2  NC(=O)[C@@H]1[C@H](Nc2nc(Nc3cnn(CCN4CCOCC4)c3)ncc2Cl)[C@H]2C=C[C@@H]1C2              pIC50               =           7.11
3  NC(=O)[C@@H]1[C@H](Nc2nc(Nc3cnn(Cc4ccccc4)c3)ncc2Cl)[C@H]2C=C[C@@H]1C2              pIC50               =           7.38
4  Cn1cc(Nc2ncc([N+](=O)[O-])c(N[C@H]3[C@@H](C(N)=O)[C@@H]4C=C[C@H]3C4)n2)cn1              pIC50               <           6.50
5  Cn1cc(Nc2ncc(Cl)c(N[C@H]3[C@H]4CC[C@H](C4)[C@H]3C(N)=O)n2)cn1              pIC50               <           6.50
6  NC(=O)[C@@H]1[C@H](Nc2nc(Nc3cnn(CCO)c3)ncc2Cl)[C@H]2C=C[C@@H]1C2              pIC50               =           7.32
7  Cn1cc(Nc2ncc(Cl)c(N[C@H]3[C@@H](C(N)=O)[C@@H]4C=C[C@H]3C4)n2)cn1              pIC50               =           7.70
